UDP-3-O-acyl-N-acetylglucosamine deacetylase (Escherichia coli K-12), P0A725 [C125S] data, read-out ΔTm
Lab book: enter the figure in °C, no units written.

[
  {
    "cpd-smiles": "COc1ccc(-c2cc3c(s2)C(=O)N(CC[C@](C)(C(=O)NO)S(C)(=O)=O)C3)c(F)c1",
    "attribute-measured": "ΔTm",
    "value-unit": "°C",
    "recorded-number": 9.3
  },
  {
    "cpd-smiles": "C[C@@](CCN1Cc2cc(C#CC#CC3(O)COC3)ccc2C1=O)(C(=O)NO)S(C)(=O)=O",
    "attribute-measured": "ΔTm",
    "value-unit": "°C",
    "recorded-number": 7
  },
  {
    "cpd-smiles": "CC(C)(O)C#CC#Cc1cc2n(c1)C(=O)N(CC[C@](C)(C(=O)NO)S(C)(=O)=O)C2",
    "attribute-measured": "ΔTm",
    "value-unit": "°C",
    "recorded-number": 9.9
  }
]

I am curious: what ΔTm value has been reported for C[C@@](CCN1Cc2cc(C#Cc3ccc(CN4CCOCC4)cc3)sc2C1=O)(C(=O)NO)S(C)(=O)=O ?
13

====

Measured ΔTm by item
Tested on: UDP-3-O-acyl-N-acetylglucosamine deacetylase (Escherichia coli K-12), P0A725 [C125S]
Sequence (whole entry): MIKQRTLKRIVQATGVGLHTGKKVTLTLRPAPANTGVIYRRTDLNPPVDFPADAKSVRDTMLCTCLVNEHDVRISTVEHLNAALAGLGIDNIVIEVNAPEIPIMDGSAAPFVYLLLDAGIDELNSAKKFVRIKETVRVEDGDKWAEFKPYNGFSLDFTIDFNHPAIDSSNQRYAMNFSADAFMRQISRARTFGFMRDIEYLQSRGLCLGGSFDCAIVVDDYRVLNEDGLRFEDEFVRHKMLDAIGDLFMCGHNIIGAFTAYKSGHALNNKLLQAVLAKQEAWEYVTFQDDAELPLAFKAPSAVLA
Lab book: enter the figure in °C, no units written.

[
  {
    "cpd-smiles": "COc1ccc(-c2cn(CC[C@@](C)(C(=O)NO)S(C)(=O)=O)c(=O)o2)c(F)c1",
    "target-or-system": "UDP-3-O-acyl-N-acetylglucosamine deacetylase (Escherichia coli K-12), P0A725 [C125S]",
    "attribute-measured": "ΔTm",
    "value-unit": "°C",
    "recorded-number": 1.9
  },
  {
    "cpd-smiles": "C[C@@](CCN1Cc2cc(C#CC#CC3(O)COC3)cn2C1=O)(C(=O)NO)S(C)(=O)=O",
    "target-or-system": "UDP-3-O-acyl-N-acetylglucosamine deacetylase (Escherichia coli K-12), P0A725 [C125S]",
    "attribute-measured": "ΔTm",
    "value-unit": "°C",
    "recorded-number": 8.8
  }
]

I am curious: what ΔTm value has been reported for C[C@@](CCN1Cc2cc(C#Cc3ccc(C4(O)COC4)cc3)cn2C1=O)(C(=O)NO)S(C)(=O)=O ?
10.8

I am curious: what ΔTm value has been reported for C[C@@](CCN1Cc2cc(C#CC#CC3(CO)CC3)sc2C1=O)(C(=O)NO)S(C)(=O)=O ?
10.9

====

Measured MIC by item
tested on: Escherichia coli; assay: microbe, parasite or virus in culture; details: ATCC 25922
Description: Antibacterial activity against wild-type Escherichia coli ATCC 25922 by broth microdilution method

[
  {
    "cpd-smiles": "C[C@@](CCN1Cc2cc(C#CC#C[C@@H]3C[C@H]3CO)sc2C1=O)(C(=O)NO)S(C)(=O)=O",
    "MIC": "0.12 µg/mL"
  },
  {
    "cpd-smiles": "C[C@@](CCN1Cc2cc(C#Cc3ccc(CN4CCOCC4)cc3)sc2C1=O)(C(=O)NO)S(C)(=O)=O",
    "MIC": "≤ 0.06 µg/mL"
  },
  {
    "cpd-smiles": "CC(C)(O)C#CC#Cc1ccc2c(c1)CN(CC[C@](C)(C(=O)NO)S(C)(=O)=O)C2=O",
    "MIC": "1 µg/mL"
  }
]

API: the following record is the query input.
I am curious: what MIC value has been reported for COc1ccc(-c2cc3c(s2)C(=O)N(CC[C@](C)(C(=O)NO)S(C)(=O)=O)C3)c(F)c1 ?
≤ 0.06 µg/mL

# credit: ChEMBL document CHEMBL4321865
